Target: Ferrochelatase, mitochondrial (Homo sapiens); note: in the data inactive means no Kd found up to 30 µM
Sequence (P22830 whole entry): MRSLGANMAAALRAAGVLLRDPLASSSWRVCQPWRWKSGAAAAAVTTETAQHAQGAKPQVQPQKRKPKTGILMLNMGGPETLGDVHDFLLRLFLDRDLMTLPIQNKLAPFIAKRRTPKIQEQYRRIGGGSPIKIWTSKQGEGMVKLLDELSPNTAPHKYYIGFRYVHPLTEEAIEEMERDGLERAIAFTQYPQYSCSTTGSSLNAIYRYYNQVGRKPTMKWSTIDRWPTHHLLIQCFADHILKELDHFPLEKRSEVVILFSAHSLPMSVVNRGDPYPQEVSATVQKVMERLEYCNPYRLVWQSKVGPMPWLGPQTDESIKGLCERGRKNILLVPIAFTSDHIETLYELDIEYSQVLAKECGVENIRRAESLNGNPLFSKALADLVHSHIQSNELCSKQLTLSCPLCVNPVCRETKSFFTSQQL
Active and inactive are the calls of the source.
Outcomes: active, inactive

molecule=CNC(=O)c1cc(COc2nnc(Nc3ccc(Cl)cc3)c3ccoc23)ccn1 category_label=inactive
molecule=CNC(=O)c1ccc(Nc2ncc(C(F)(F)F)c(NCc3nccnc3N(C)S(C)(=O)=O)n2)cc1 category_label=inactive
molecule=CC1(COc2ccc3c(c2)ncn3-c2ccc3cccc(N4CCC(N)CC4)c3n2)COC1 category_label=active
molecule=Cn1c(=O)c(F)c(Nc2ccc(I)cc2F)c2c(=O)n(C[C@@H](O)CO)cnc21 category_label=inactive
molecule=Cc1ccc(C(=O)Nc2ccc(Oc3cc4cnn(C)c4cc3-c3cn[nH]c3)c(F)c2)c(=O)n1-c1ccc(F)cc1 category_label=inactive
molecule=COc1ccc2c(OCc3nnc4ccc(-c5ccccc5)nn34)ccnc2c1 category_label=inactive
molecule=COCCN1CCN(Cc2ccc(-c3n[nH]c4c3C(=O)c3c(NC(=O)NN5CCOCC5)cccc3-4)cc2)CC1 category_label=inactive
molecule="COc1ccc(-c2ccc3ncc4c(c3c2)n(-c2ccc(N3CCNCC3)c(C(F)(F)F)c2)c(=O)n4C)cn1 [BGT-226 FREE BASE]" category_label=active
molecule=O=C(Nc1ccc(OC(F)(F)F)cc1)c1sccc1NCc1ccnc2ccccc12 category_label=inactive
molecule=NC[C@@](O)(c1ccc(Cl)cc1)c1ccc(-c2cn[nH]c2)cc1 category_label=inactive
molecule=Cc1cc(C(=O)Nc2cc(Oc3ccc4nc(NC(=O)C5CC5)cn4n3)ccc2C)n(C)n1 category_label=inactive
molecule=O=C(NOC[C@H](O)CO)c1ccc(F)c(F)c1Nc1ccc(I)cc1F category_label=inactive
molecule=c1cc(OCCN2CCCCC2)cc(-c2n[nH]c3ccc(-c4nc[nH]n4)cc23)c1 category_label=active
molecule="COc1cc2ncnc(Nc3ccc(F)c(Cl)c3)c2cc1NC(=O)/C=C/CN1CCCCC1 [DACOMITINIB ANHYDROUS]" category_label=inactive
molecule=O=C(O)c1ccc2c(c1)nc(Nc1cccc(Cl)c1)c1ccncc12 category_label=inactive
molecule=CC1(C)CNc2cc(NC(=O)c3cccnc3NCc3ccncc3)ccc21 category_label=inactive
